From: the supplement of paper PMC10567573

Please provide measured protein stability index for the entries that follow.
B1: CDKN1A (parent)
chain: RRQTSMTDFYHSKRRLIFSKRKP

variants of: B1; assay: protein stability index of a GFP-peptide fusion (GPS, HEK-293T) (PSI 1-6); higher = more stable; conditions: c terminus: native;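 note: lentivirally expressed fusions sorted by FACS into six bins by GFP to DsRed ratio, PSI derived from sequencing read proportions per bin multiplied by bin number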

The examples below pair each entry with its known result.
# seq-text, protein stability index
data = [
    ("RRQTSMTDFYHSKRRCIFSKRKP [L16C]", 2.32),
    ("RRQTSMNDFYHSKRRLIFSKRKP [T7N]", 3.04),
]

Required: protein stability index, one value per variant below.
1. RRQTSMTDFYHSKRRLIFSKFKP [R21F]
2. RRQTSMTDFYHSKERLIFSKRKP [R14E]
3. RRQTSMTDFYHSKRRLIFSKTKP [R21T]
4. RRQTSMTDFYHSKRRLIFSKRKL [P23L]
5. RRQTSWTDFYHSKRRLIFSKRKP [M6W]
6. RRQTSMTDFYHSKRRLIFSKAKP [R21A]

Output line:
[2.03, 3.86, 3.55, 2.84, 2.56, 2.5]

Please look at the items below and tell me protein stability index for each one, in order.
1. RRQTKMTDFYHSKRRLIFSKRKP [S5K]
2. RRQTSMTDFYHSKRALIFSKRKP [R15A]
3. RRQTSMTDFCHSKRRLIFSKRKP [Y10C]
4. RRQTSMTDFYHSGRRLIFSKRKP [K13G]
5. RRQTSMTDTYHSKRRLIFSKRKP [F9T]

Output line:
[2.87, 2.94, 1.4, 1.81, 2.25]

Give measured protein stability index for every item shown.
1. RRQTSITDFYHSKRRLIFSKRKP [M6I]
2. RRQTSMTDGYHSKRRLIFSKRKP [F9G]

Output line:
2.14
2.02
